read-out: Macrophage colony-stimulating factor (MCSF), CSF1 (gene 1435); assay: BSK_CASM3C_MCSF: BioMAP Diversity Plus: CASM3C Assay for Macrophage colony-stimulating factor (MCSF) Biomarker Activity (AID 2283044); conditions: primary human coronary artery smooth muscle cells; actives raise or lower the signal;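 further: M-CSF protein amount quantified by ELISA after 24 h exposure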
Activity calls are given as the source filed them. How the source made its calls: active means hit-call score of the fitted dose curve at least 0.9, where 1 is the maximum; inactive means score below 0.9.
Assign a class; possible classes are active, inactive

INSERT INTO assay_data (compound, category) VALUES
  ('Cc1ccc(S(=O)(=O)NC(=O)NN2CCCCCC2)cc1', 'inactive'),
  ('CCCCCCCCN(C)C', 'inactive'),
  ('FC(F)=C(F)C(F)(F)C(F)(F)C(F)(F)C(F)(F)C(F)(F)C(F)(F)F', 'inactive'),
  ('O=C(Cl)C(F)(F)C(F)(F)C(F)(F)C(=O)Cl', 'inactive'),
  ('CCCCCOC(C)=O', 'inactive');

## Task In this assay, the call recorded for CCN(CC)C(=S)SSC(=S)N(CC)CC was what?
## Result active

## Task Next record, please: COS(C)(=O)=O
## Result inactive

## Task And then CC(C)C(=O)Nc1ccc([N+](=O)[O-])c(C(F)(F)F)c1 , what is it?
## Result inactive

## Task Another compound: FC(F)(F)COC(OCC(F)(F)F)OCC(F)(F)F
## Result inactive

## Task Thanks! And CCc1ccc(O)c(C(C)(C)C)c1 ?
## Result inactive

## Task Next compound: OCc1ccccc1
## Result inactive

## Task Same read-out for O=C(O)[C@H](O)[C@@H](O)C(=O)O ?
## Result inactive

## Task Would you mind doing O=C(NO)C1(NS(=O)(=O)c2ccc(Oc3ccc(F)cc3)cc2)CCOCC1 as well?
## Result inactive

## Task Same again, this time with CC1(C)C(=O)N(Cl)C(=O)N1Cl
## Result inactive

====

biological target: Peroxisome proliferator-activated receptor gamma (Homo sapiens) (UniProt P37231); assay: NVS_NR_hPPARg: NovaScreen (NVS) Nuclear Receptor Binding Assay for human Peroxisome Proliferator-activated Receptor gamma (PPARg) (AID 2283370)
Sequence (P37231 whole entry, looked up): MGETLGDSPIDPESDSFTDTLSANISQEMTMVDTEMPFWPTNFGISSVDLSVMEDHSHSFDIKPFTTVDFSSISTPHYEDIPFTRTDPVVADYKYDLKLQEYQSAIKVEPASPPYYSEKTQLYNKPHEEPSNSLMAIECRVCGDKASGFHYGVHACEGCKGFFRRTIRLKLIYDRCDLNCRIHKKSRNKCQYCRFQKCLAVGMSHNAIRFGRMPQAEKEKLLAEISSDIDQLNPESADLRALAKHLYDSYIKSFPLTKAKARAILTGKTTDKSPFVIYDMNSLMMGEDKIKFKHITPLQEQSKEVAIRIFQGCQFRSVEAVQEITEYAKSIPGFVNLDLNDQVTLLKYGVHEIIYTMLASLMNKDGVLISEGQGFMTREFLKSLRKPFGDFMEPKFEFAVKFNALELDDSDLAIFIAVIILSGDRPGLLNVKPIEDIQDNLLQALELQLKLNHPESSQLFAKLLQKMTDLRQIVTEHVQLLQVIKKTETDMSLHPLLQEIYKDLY
Inconclusive results are not listed. The source made the active and inactive calls. Rule for the calls: active = hit-call score of the fitted dose curve at least 0.9, where 1 is the maximum; inconclusive = response in the unintended direction; inactive = score below 0.9.
Lab note: assign the record to one of TRUE (active), FALSE (inactive)

INSERT INTO measurements (molecular_string, category) VALUES
  ('c1ccc2c(c1)-c1cccc3c1c-2cc1ccccc13', 'FALSE'),
  ('CCOc1ccc2[nH]cc(C(=O)NCc3ccccc3)c(=O)c2n1', 'FALSE'),
  ('Cc1nccn1-c1ccc(Sc2cccc(C3(C(N)=O)CCOCC3)c2)cc1', 'FALSE');

## Task Tell me the recorded outcome of this test for OCc1ccccc1 .
## Result FALSE

## Task // next record C=CCc1cc(S(=O)(=O)c2ccc(O)c(CC=C)c2)ccc1O
## Result TRUE

## Task Now consider C[C@@H](Oc1ccc(CNC(=O)c2cccnc2Oc2ccc3c(c2)OCO3)c(F)c1)C(=O)O and answer again.
## Result TRUE

====

read-out: Cytochrome P450 (CYP1A1), CYP1A1 (gene 1543); test: LTEA_HepaRG_CYP1A1: Life Technologies and Expression Analysis (LTEA) Assay for Cytochrome P450 (CYP1A1) using HepaRG (AID 2283454); settings: mRNA level, 48 h; actives raise or lower the signal
Activity calls are given as the source filed them. Rule for the calls: active = hit-call score of the fitted dose curve at least 0.9, where 1 is the maximum; inactive = score below 0.9.
Hi there, use one of these labels in your reply, thanks! 1 (yes) = active, 0 (no) = inactive

INSERT INTO results (compound, category) VALUES
  ('CC1(C)C(=O)N(Cl)C(=O)N1Cl', '1 (yes)'),
  ('O=C(O)c1ccc2c(c1)nc(C(=O)NC1CCN(C3CC3)CC1)n2Cc1cc(-c2ccc(Cl)s2)on1', '1 (yes)'),
  ('OC[C@H]1O[C@@](CO)(O[C@H]2O[C@H](CO)[C@@H](O)[C@H](O)[C@H]2O)[C@@H](O)[C@@H]1O', '1 (yes)'),
  ('CCCCC(CC)C(=O)OCCOCCOCCOC(=O)C(CC)CCCC (configuration not stated)', '0 (no)'),
  ('OCCOCCOCCO', '1 (yes)'),
  ('OCc1ccccc1', '0 (no)'),
  ('COc1cc2c(c(OC)c1OC)-c1ccc(OC)c(=O)cc1[C@@H](NC(C)=O)CC2', '1 (yes)'),
  ('COS(C)(=O)=O', '0 (no)');

## Task Given c1ccc2c(c1)-c1cccc3c1c-2cc1ccccc13 , state the outcome it received in this test.
## Result 1 (yes)

## Task Also OC[C@H]1O[C@@H]2O[C@H]3[C@H](O)[C@@H](O)[C@@H](O[C@H]4[C@H](O)[C@@H](O)[C@@H](O[C@H]5[C@H](O)[C@@H](O)[C@@H](O[C@H]6[C@H](O)[C@@H](O)[C@@H](O[C@H]7[C@H](O)[C@@H](O)[C@@H](O[C@H]1[C@H](O)[C@H]2O)O[C@@H]7CO)O[C@@H]6CO)O[C@@H]5CO)O[C@@H]4CO)O[C@@H]3CO , if possible.
## Result 1 (yes)

## Task Please answer likewise for CCCCCCCCCCCCCCCCOS(=O)(=O)O
## Result 1 (yes)

## Task Try the compound CC(C)C(=O)Nc1ccc([N+](=O)[O-])c(C(F)(F)F)c1
## Result 1 (yes)

## Task Same lookup for COc1cc(C(C)C)c2c(c1)S(=O)(=O)N(COc1cc(=O)n3cccc(OCCN4CCCCC4)c3n1)C2=O , please.
## Result 0 (no)

## Task How about this compound: CCCCOC(=O)c1ccccc1
## Result 0 (no)
